All figures here come from PubChem BioAssay (NCI).

Entries with their measured GI50, system MDA-MB-435:

Illustrative cases are given below, each with its answer.
Q) Give its GI50 value. Item: "CCCn1c(N)c(C(=O)CNc2ccc(I)cc2)c(=O)[nH]c1=O"
A) 6.01 µM

Q) Now try "COc1ccc(/C=N/N=C(\[O-])c2ccncc2)cc1F.COc1ccc(/C=N\N=C(/[O-])c2ccncc2)cc1F.[Cu+2]" .
A) 62.1 µM

Q) Next record, please: "c1ccc2nc(OCCN3CC3)ccc2c1"
A) 3.31 µM

Q) What do you have for "O=S(=O)(O)ONC1=NCCN1" ?
A) > 100 µM

Q) Moving on to the next molecule: "C=CCCC(=O)N1C=CC(=O)[C@H](O)[C@@H]1/C=C/c1ccccc1"
A) 10.7 µM

Q) Also, "CCOC(=O)Cc1csc(NC(=O)COC(=O)c2ccc(OC)cc2)n1" please.
A) > 100 µM

More entries:
Q) Returns the measured GI50 for the input molecule. Input: "Cc1sc2ncn(Cc3ccc(Cl)c(Cl)c3)c(=O)c2c1C"
A) 8.72 µM

Q) Also check "COc1ccc(NC(=O)/C=C(C)/C=C/C=C(C)\C=C\C2=C(C)CCCC2(C)C)cc1"
A) 48.2 µM

Q) Now the molecule "CCOC(=S)SCN1C(=O)c2ccccc2S1(=O)=O"
A) 6.5 µM

Q) Would you mind doing O=[As]c1ccc(C(=O)c2ccc(Oc3ccccc3)cc2)cc1 (stereo unspecified) as well?
A) 0.0396 µM

Q) Also, "CCCCOc1ccc(/C=N/Nc2cc(C)nc3ccc(Cl)cc23)cc1" please.
A) 1.73 µM
